Assay: Solubility
Format: physicochemical
Details: isopropanol, organic solvent or mixture; read-out: Solubility in Isopropanol
Readout Name: solubility (mg/mL)
Give the quantity in mg/mL, number only.

For CCCCC(CC)COc1c(OC)ccc(-c2nc3ccccc3[nH]2)c1OC (stereo not shown) , what is its reported solubility?
640

====

Experiment: Solubility
Format: physicochemical
Settings: paraffin, organic solvent or mixture; read-out: Solubility in Paraffin
Readout Name: solubility (mg/mL)
Give the quantity in mg/mL, number only.

For CCCCC(CC)COc1c(OC)ccc(-c2nc3ccccc3[nH]2)c1OC (stereo not shown) , what is its reported solubility?
57
